# test.system: BRD4-BD1 (Homo sapiens (Human), UniProt O60885)
# method.summary: BRD4-H4 Tetraacetylated Peptide Inhibition AlphaScreen
# settings: GST-BRD4-BD1 (aa 44-168), biotinylated Acetyl-Histone H4 peptide
recorded.metric: IC50

IC50 reported for this compound CCn1cc(-c2nc3cnc(N4CCOCC4)cc3n2Cc2ccccc2)cc(C)c1=O : 163 nM

IC50 reported for this compound COC[C@H](C)n1c(-c2cc(C)c(=O)n(C)c2)nc2ccc(N)cc21 : 268 nM

IC50 reported for this compound CN1CCN(c2ccc3nc(-c4ccc(=O)n(C)c4)n(Cc4ccccc4)c3c2)CC1 : 547 nM

IC50 reported for this compound CC1CC(=O)NN=C1c1ccc2c(c1)nc(-c1cc(N)c(=O)n(C)c1)n2Cc1ccccc1 (centres unmarked) : 145 nM

IC50 reported for this compound CN1CCN(c2ccc3nc(-c4ccc(=O)n(C)c4)n(Cc4ccccc4)c3n2)CC1 : 697 nM

IC50 reported for this compound COC[C@H](C)n1c(-c2cc(C)c(=O)n(C)c2)nc2ccc(N3CCOC[C@@H]3C)cc21 : 75 nM

IC50 reported for this compound COC[C@H](C)n1c(-c2cc(C)c(=O)n(C)c2)nc2ccc(C3CCOCC3)cc21 : 96 nM

IC50 reported for this compound Cc1cc(-c2nc3cnc(N4CCOC[C@@H]4C)cc3n2[C@@H](C)c2ccccn2)cn(C)c1=O : 130 nM

----------
# test.system: BRD4-BD1 (Homo sapiens (Human), UniProt O60885)
# method.summary: BRD4-H4 Tetraacetylated Peptide Inhibition AlphaScreen
# settings: GST-BRD4-BD1 (aa 44-168), biotinylated Acetyl-Histone H4 peptide
pIC50: −log10 of the molar value.
Kindly return 1 (yes) if reported pIC50 is no lower than 7; return 0 (no) if it is lower.

Could you tell me if the measured pIC50 of Cc1cc(-c2nc3cc(N4CCN(C)CC4)cnc3n2Cc2ccccc2)cn(C)c1=O reaches 7 or more?
1 (yes)

Could you tell me if the measured pIC50 of Cn1cc(-c2nc3ccccc3n2Cc2ccccc2)ccc1=O reaches 7 or more?
0 (no)

Could you tell me if the measured pIC50 of Cc1cc(-c2nc3cnc(OC4CCOC4)cc3n2[C@@H](C)c2ccccn2)cn(C)c1=O (stereo partly shown) reaches 7 or more?
0 (no)

Could you tell me if the measured pIC50 of Cn1cc(-c2nc3ccccc3n2Cc2ccccc2)cc(N)c1=O reaches 7 or more?
0 (no)

Could you tell me if the measured pIC50 of Cn1cc(-c2nc3ccccc3n2Cc2ccccc2)ncc1=O reaches 7 or more?
0 (no)

Could you tell me if the measured pIC50 of Cc1cc(-c2nc3cnc(N4CCOCC4)cc3n2Cc2ccccc2)cn(C)c1=O reaches 7 or more?
1 (yes)

Could you tell me if the measured pIC50 of Cc1cc(-c2nc3cc(N)cnc3n2Cc2ccccc2)cn(C)c1=O reaches 7 or more?
1 (yes)

Could you tell me if the measured pIC50 of Cc1cc(-c2nc3ccc(OC(C)C)nc3n2C(C)c2ccccn2)cn(C)c1=O (stereo not shown) reaches 7 or more?
0 (no)

Could you tell me if the measured pIC50 of Cc1cc(-c2nc3ccc(C#N)cc3n2Cc2ccccc2)cn(C)c1=O reaches 7 or more?
0 (no)

Could you tell me if the measured pIC50 of Cc1cc(-c2nc3cnc(N(C)C)cc3n2Cc2ccccc2)cn(C)c1=O reaches 7 or more?
1 (yes)

Could you tell me if the measured pIC50 of Cc1cc(-c2nc3cnccc3n2Cc2ccc(Cl)cc2)cn(C)c1=O reaches 7 or more?
1 (yes)

Could you tell me if the measured pIC50 of Cc1cc(-c2nc3cnc(N4CCN(C)CC4)cc3n2Cc2ccccc2)nn(C)c1=O reaches 7 or more?
1 (yes)

Could you tell me if the measured pIC50 of Cc1cc(-c2nc3ccc(N4CCN(C)CC4)cc3n2Cc2ccccc2)nn(C)c1=O reaches 7 or more?
1 (yes)

Could you tell me if the measured pIC50 of Cc1cc(-c2nc3cnc(N4CCOCC4)nc3n2Cc2ccccc2)cn(C)c1=O reaches 7 or more?
1 (yes)

Could you tell me if the measured pIC50 of Cc1cc(-c2nc3ccccc3n2Cc2ccccc2)c[nH]c1=O reaches 7 or more?
0 (no)
